- targetDesc: KRAS G12C and cRAF (Ras-binding domain) interaction (Homo sapiens (Human), UniProt P01116, C118S/C51S/C80L/G12C)
- Sequence (P01116 other isoform, or with tags, fused parts or gaps G12C/C51S/C80L/C118S): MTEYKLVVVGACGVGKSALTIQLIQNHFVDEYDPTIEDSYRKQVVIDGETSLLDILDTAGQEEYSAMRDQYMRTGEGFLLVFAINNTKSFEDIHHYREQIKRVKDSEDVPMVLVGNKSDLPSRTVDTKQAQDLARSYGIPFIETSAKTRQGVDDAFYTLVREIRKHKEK
- experimentalProtocol: Inhibition of KRAS G12C and cRAF binding (AlphaScreen)
- conditionsUsed: GMPPNP-loaded KRAS G12C, 19-20 hours incubation with compound; read-out: IC50 (Inhibition of KRAS G12C and cRAF Binding)
pIC50: −log10 of the molar value.
readoutName: pIC50

entrySmiles | readoutName | recordedResult
CCc1c(F)ccc2cccc(-c3ncc4c(N(C)[C@@H]5CCN(C(=O)/C=C/c6cc(C)nc(C)n6)C5)nc(OC[C@@]56CCCN5C[C@H](F)C6)nc4c3F)c12 | pIC50 | 6.30 to 7.00
CC(C)c1noc(/C=C/C(=O)N2CC[C@@H](N(C)c3nc(OC[C@@]45CCCN4C[C@H](F)C5)nc4c3CCN(c3cccc5ccc(F)c(Cl)c35)C4)C2)n1 | pIC50 | 7.00 to 8.00
CN1CCC[C@H]1COc1nc2c(c(N(C)[C@H]3CCN(C(=O)/C=C/S(C)(=O)=O)C3)n1)CCN(c1cccc3cccc(Cl)c13)C2 | pIC50 | > 8.00
CN(CC1CN(C(=O)/C=C/[C@H]2CCN2C)C1)c1nc(OC[C@@]23CCCN2C[C@H](F)C3)nc2c(F)c(-c3cccc4ccc(F)c(Cl)c34)ncc12 | pIC50 | > 8.00

Q: Item under review: C=CC(=O)N1CC[C@@H](N(C)c2nc(OC[C@@]34CCCN3C[C@H](F)C4)nc3c(F)c(-c4cccc5ccc(F)c(F)c45)ncc23)C1 . Reported pIC50?
Ans: 7.00 to 8.00

Q: Input CN1CC(=CC(=O)N2CC[C@@H](N(C)c3nc(OC[C@@]45CCCN4C[C@H](F)C5)nc4c(F)c(-c5cccc6ccc(F)c(F)c56)ncc34)C2)C1
Ans: > 8.00

====

- targetDesc: KRAS G12C and cRAF (Ras-binding domain) interaction (Homo sapiens (Human), UniProt P01116, C118S/C51S/C80L/G12C)
- experimentalProtocol: Inhibition of KRAS G12C and cRAF binding (AlphaScreen)
- conditionsUsed: GMPPNP-loaded KRAS G12C, 19-20 hours incubation with compound; read-out: IC50 (Inhibition of KRAS G12C and cRAF Binding)
pIC50: −log10 of the molar value.
readoutName: pIC50

compound | pIC50
CC(C)c1noc(/C=C/C(=O)N2CC[C@@H](N(C)c3nc(OC[C@@]45CCCN4C[C@H](F)C5)nc4c3CCN(c3cccc5cccc(Cl)c35)C4)C2)n1 [Example 136] | 7.00 to 8.00
COC(=O)/C=C\C(=O)N1CCC(N(C)c2nc(OC[C@@H]3CCCN3C)nc3c2CCN(c2cccc4cccc(Cl)c24)C3)C1 (stereo partly drawn) [Example 7] | < 6.30

Q: Item under review: CN(c1nc(OC[C@@]23CCCN2C[C@H](F)C3)nc2c(F)c(-c3cccc4cccc(Cl)c34)ncc12)[C@@H]1CCN(C(=O)C=C2CCC2)C1 [Example 267] . Reported pIC50?
Ans: 6.30 to 7.00

Q: Input CN(CC1CN(C(=O)/C=C/[C@@H]2CCN2C)C1)c1nc(OC[C@@]23CCCN2C[C@H](F)C3)nc2c(F)c(-c3cccc4ccc(F)c(Cl)c34)ncc12 [Example 220]
Ans: > 8.00

Q: Input COC/C=C/C(=O)N1CCC(N(C)c2nc(OC[C@@H]3CCCN3C)nc3c2CCN(c2cccc4cccc(Cl)c24)C3)C1 (stereo partly drawn) [Example 5]
Ans: < 6.30

====

- targetDesc: KRAS G12C and cRAF (Ras-binding domain) interaction (Homo sapiens (Human), UniProt P01116, C118S/C51S/C80L/G12C)
- experimentalProtocol: Inhibition of KRAS G12C and cRAF binding (AlphaScreen)
- conditionsUsed: GMPPNP-loaded KRAS G12C, 19-20 hours incubation with compound; read-out: IC50 (Inhibition of KRAS G12C and cRAF Binding)
pIC50: −log10 of the molar value.
readoutName: pIC50

Completed entries (count: 5):
molecule | recordedResult
CN(c1nc(OC[C@@]23CCCN2C[C@H](F)C3)nc2c1CCN(c1cccc3cccc(Cl)c13)C2)[C@@H]1CCN(C(=O)/C=C/c2cn(C)cn2)C1 | < 6.30
C[C@@H](F)c1noc(/C=C/C(=O)N2CC[C@@H](N(C)c3nc(OC[C@@]45CCCN4C[C@H](F)C5)nc4c(F)c(-c5cccc6cccc(Cl)c56)ncc34)C2)n1 | > 8.00
Cc1cc(/C=C/C(=O)N2CC[C@@H](N(C)c3nc(OC[C@@]45CCCN4C[C@H](F)C5)nc4c(F)c(-c5cccc6ccc(F)c(Cl)c56)ncc34)C2)nc(C)n1 | 7.00 to 8.00
C[C@@H]1C[C@@H](N(C)c2nc(OC[C@@H]3CCCN3C)nc3c2CCN(c2cccc4cccc(Cl)c24)C3)CN1C#N | < 6.30
CN(c1nc(OC[C@@]23CCCN2C[C@H](F)C3)nc2c(F)c(-c3cccc4ccc(F)c(Cl)c34)ncc12)[C@@H]1CCN(C(=O)/C=C/C2CCCO2)C1 (some centres unmarked) | 6.30 to 7.00

Q: Item under review: CN(c1nc(OCC23CCCN2CCC3)nc2c(F)c(-c3cccc4cccc(Cl)c34)ncc12)[C@@H]1CCN(C(=O)/C=C/c2nc(C3(C)CC3)no2)C1 . Reported pIC50?
Ans: > 8.00

Q: Input CN(CCC1CN(C#N)C1)c1nc(OC[C@@H]2CCCN2C)nc2c1CCN(c1cccc3cccc(Cl)c13)C2
Ans: 6.30 to 7.00

Q: Input C#Cc1c(F)ccc2cccc(-c3ncc4c(N(C)[C@@H]5CCN(C(=O)/C=C/CN(C)C)C5)nc(OC[C@@]56CCCN5C[C@H](F)C6)nc4c3F)c12
Ans: > 8.00

Q: Input Cc1nccc(/C=C/C(=O)N2CC[C@@H](N(C)c3nc(OC[C@@]45CCCN4C[C@H](F)C5)nc4c(F)c(-c5cccc6cccc(Cl)c56)ncc34)C2)n1
Ans: 6.30 to 7.00

Q: Input Cc1nsc(/C=C/C(=O)N2CC[C@@H](N(C)c3nc(OCC45CCCN4CCC5)nc4c(F)c(-c5cccc6cccc(Cl)c56)ncc34)C2)n1
Ans: 7.00 to 8.00

====

- targetDesc: KRAS G12C and cRAF (Ras-binding domain) interaction (Homo sapiens (Human), UniProt P01116, C118S/C51S/C80L/G12C)
- experimentalProtocol: Inhibition of KRAS G12C and cRAF binding (AlphaScreen)
- conditionsUsed: GMPPNP-loaded KRAS G12C, 19-20 hours incubation with compound; read-out: IC50 (Inhibition of KRAS G12C and cRAF Binding)
pIC50: −log10 of the molar value.
readoutName: pIC50

Completed entries (count: 2):
compound | pIC50
C=CC(=O)N1C[C@H](F)[C@@H](N(C)c2nc(OC[C@@]34CCCN3C[C@H](F)C4)nc3c(F)c(-c4cccc5cccc(Cl)c45)ncc23)C1 [Example 73] | 7.00 to 8.00
CN(c1nc(OC[C@@]23CCCN2C[C@H](F)C3)nc2c(F)c(-c3cccc4cccc(Cl)c34)ncc12)[C@@H]1CCN(C(=O)C#C[C@]2(C)CCCN2C)C1 [Example 193] | 7.00 to 8.00

Let us examine a further case.
Q: Item under review: CN(c1nc(OC[C@@]23CCCN2C[C@H](F)C3)nc2c(F)c(-c3cccc4cccc(Cl)c34)ncc12)[C@@H]1CCN(C(=O)C#CC2CCCN2)C1 (stereo partly drawn) [Example 59] . Reported pIC50?
Ans: > 8.00

====

Reported IC50 values for a set of molecules
- targetDesc: KRAS G12C and cRAF (Ras-binding domain) interaction (Homo sapiens (Human), UniProt P01116, C118S/C51S/C80L/G12C)
- experimentalProtocol: Inhibition of KRAS G12C and cRAF binding (AlphaScreen)
- conditionsUsed: GMPPNP-loaded KRAS G12C, 19-20 hours incubation with compound; read-out: IC50 (Inhibition of KRAS G12C and cRAF Binding)

molecule | IC50
Cc1nccc(/C=C/C(=O)N2CCC(Nc3nc(OC[C@@]45CCCN4C[C@H](F)C5)nc4c(F)c(-c5cccc6cccc(Cl)c56)ncc34)CC2)n1 [Example 261] | > 500 nM
Cc1ncc(F)c(/C=C/C(=O)N2CC[C@@H](N(C)c3nc(OC[C@@]45CCCN4C[C@H](F)C5)nc4c(F)c(-c5cccc6ccc(F)c(F)c56)ncc34)C2)n1 [Example 295] | 10 to 100 nM

Let us examine a further case.
Q: Item under review: Cc1ncc(F)c(/C=C/C(=O)N2CC[C@@H](N(C)c3nc(OC[C@@]45CCCN4C[C@H](F)C5)nc4c(F)c(-c5cccc6cccc(Cl)c56)ncc34)C2)n1 [Example 241] . Reported IC50?
Ans: 100 to 500 nM
